Protocol description: yeast display, Sf9 membrane polyspecificity reagent, FACS + sequencing; frameworks hold sequencing errors
Measure name: polyreactivity (PSR sort gate)

QVQLVESGGGLDQARGSLRLSCAASGFIFGRYAMGWYRQAPGKVRELVAAISRSGGSTHYADSVKGRFTISRDNAKNTVYLQMNSLKPEDTAVYYCNTYLTIWGYFYGYDYWGQGTQVTVSS : high polyreactivity
QVQLVESGGGLVQAGGSLRLSCAASGRISRRNAMGWYRQAPGKEREFVATITSSGGCTYYADSVKGRFTISRDNAKNTVYLQMNSLKPEDTAVYYCAARVRGRYTEDYWGQGTQVTVSS : high polyreactivity

====

Protocol description: yeast display, Sf9 membrane polyspecificity reagent, FACS + sequencing; frameworks hold sequencing errors
Measure name: polyreactivity (PSR sort gate)

Worked examples follow.
QVQLVESGGGLVQAGGSLRLSCAASGFTFYIYAMGWYRPAPRNERELLAAITGSGGRTYYADSVKGRFTISRDYAKNTVYLQMNRLKPEETAVYYSNVLLQRVYGTEPSFDYWGQGTQVTVSS : high polyreactivity
QVQLVESGGGLVQAGGSLRLSCAASGITFSWYAMGWYRQAPGKEREFVATISASGGSTYYADSVKGRFTISRDNAKNTVYLQMNSLKAEDTAVYYCAAVIWYRNGARGTFDYWGQGTQETVSS : high polyreactivity
QVQLVESGGGLVQAGGSLRLSCAASGSTFVPYAMGWYRQAPGKERELVAAITWSGGDSTYYADSVKGRFTISRDNAKNTVYLQMNSLKPEDTAVYYCAASYLGRKYDYWGQGTQVTVSS : high polyreactivity
QVQLVESGGGLVQAGGSLRLICAASGFTFSVYAMGWYRQAPGKERELVAAITWRGGSTYYADSVKGRFTISRDNAKNTVYLQMNSLKPEDTAVYYCAVLYPKYGKRYGYWGQGTQVTVSS : high polyreactivity
QVQLEESGGGLLKEGGSLRLSCAASGFTFDGYAMGWYRQAPGKERELVAVITSGGSTKYADSVKGRFTISRDNAKNTVYLQMNSLKPEVTAVYNCNVVGGRYLYSAYDYWGHGTQVTVSS : low polyreactivity

Would you kindly look at the next entry?
Give the measured polyreactivity (PSR sort gate) of QVQLVEAGGGLVQAGGSLRLSCAASGGIFLPYAMGWYRQAPGKERELVAGITSVGSTYADSVKGRFTISRDNAKNTVYLQMNSLKPEDTAVYYCNADIYFVEYDYWGQGTQVTVSS . low polyreactivity

====

Protocol description: yeast display, Sf9 membrane polyspecificity reagent, FACS + sequencing; frameworks hold sequencing errors
Measure name: polyreactivity (PSR sort gate)

Worked examples follow.
QVQLVESGGGLVQAGGSLRLSCAASGFTFGSYAKGWYRQAPGKERELVAAIRASGGRTYYADSVKGRFTISRDNAKNTVFLQMNSLKPEDTAVYYCAADTGGNPKYDYWGQGTQVTVSS : high polyreactivity
QVQLVESGGGLVQAGRSLRLSCAASGRIFGPYTMGWYRQAPGKEREFVAAITRRGGSTYYADSVKGRFTISRDNAKNTGYLQRHSLKPEDTAVYYCAAVGQKRSLGYSWGQGTQVTVSS : low polyreactivity
QVQLVESGGGLVQAGGILRLSFAASGSTFYPNTMGWYRQAPGKERELVAAITNGGSTNYADSVKGRFTIARDNAKNTVYLQMNSLKPEDTAVYDCAADGYDQWGRDVVYLIWTSYDYWGQGTQVTVSS : high polyreactivity
QVQLVESGGGLVQAGGSLRLSCAASGSIFPWNAMGWYRKAHGKARELVAVISQNGGRTYYADSVKGSFTISRDKAKNTVYLQMNSLKPEDTAVYYCAARPRLPRQIGGDGHLDDYWGQGTQVTVSS : high polyreactivity
QVQLVESGGGLVQAGGSLRLSCAASGFTLEFYAMGWYRQAPGKERELVAAISKSGGSTYYADSVKGRFTISRDNAKNTVYLQMNSLKPEDTAVYYCAKVNSYGPVPDRYDYWGQGTQVTVSS : high polyreactivity

Give the measured polyreactivity (PSR sort gate) of QVQLVESGGGLVQAGGSLRLICAASGRIFHYYAMGWYRQAPGKERELVAAIRWSGGDTYYADSVKGRFTISRDNAKNTVYLQMNSLKPEDTAVYYCAAYDHVYEYDYWGQGTQVTVSS . low polyreactivity

Give the measured polyreactivity (PSR sort gate) of QVQLQESGGGLVQAGGSPRLSCAASDNIFPDSLMCWYRQAPGKERELVATIGFGATTNYEDSVKGRFTISRDNAKNTVYLQMNSLNPEDTALYYCAAVPLNYEYFCYWGQGTQVTVSS . low polyreactivity

Give the measured polyreactivity (PSR sort gate) of QVHLVESGGGLVQAGVSLRLSCAASGSTFDYYAMGWYIQAPGTERELVAGITGGGSTYYADSVKGRFTISRDNAKNTVYLQMNSLKPEDTAVYYCNAGPAQRYDYWGQGTQVTVSS . low polyreactivity

Give the measured polyreactivity (PSR sort gate) of QVQLVESGGGLVQAGGSLRLSCAASGRIFAYNTMGWYRQAPRKERELVAVITSGGATNYADSVKGRFTISRDNAKNTVYLQMNSLKPEDTAVYYCAKRPYGRSGGSRYDYWGQGTQVTVSS . high polyreactivity

Give the measured polyreactivity (PSR sort gate) of QVQLVESGGGLVQAGGSLRLSCAASGSIFGGYAMGWYRQAPGKERELVATINLGGGSTYADSVKGRFTISRDNAKNTVYLQMNSLKPEDTAVYYCAADVANSIYDYWGQGTQVTVSS . low polyreactivity

Give the measured polyreactivity (PSR sort gate) of QVQLVESGGGLVQAGGSLRLTCAASGIIFRGYVMAWYRQAPGKERELVAAISTSGGRTSYADSVKGRFTISRDNAKNTVYLQMNSLKPEDTAVYYCKTRVTGNRLGYYYWGQGTQVTVSS . high polyreactivity

====

Protocol description: yeast display, Sf9 membrane polyspecificity reagent, FACS + sequencing; frameworks hold sequencing errors
Measure name: polyreactivity (PSR sort gate)

QVQLVESGGGLVQAGGSLRLSCAASGRTFSPYAMGWYRQAPGKERELVAAIYNGGSTYYADSVKGRFTISRDNAKNTVYLQMNSLKPEDTAVYYCAAGRKSLYRIYSEYVEFDYWGQGTQVTVSS : low polyreactivity
QVQLVESGGGLVQAGGSLRLSCAASGRTFGRYAMGWYRQAPGKERELVAAISYSTDSTYYADSVKGRFTISRDNAKNTVYLQMNSLKPEDTAVYYCASDSVIVGSYVGDKHDYWGQGTQVTVSW : low polyreactivity

====

Protocol description: yeast display, Sf9 membrane polyspecificity reagent, FACS + sequencing; frameworks hold sequencing errors
Measure name: polyreactivity (PSR sort gate)

QVQLVESGGGLVQAGGSLRLICAASGRIFGANAMGWYIQAPGKERELVAAISRTGGSKYYADSVKGRFTISRDNAKNTVYLQMNSLKPEDTAVYYCNAVYRYAHPMEYWGQGTQVTVSS : high polyreactivity
QVQLVESGGGLVQAGGSLRLSCDCSGRIFKRYDMGWYRQAPGKERELVAAITGTGGSTYYADSVKGRFTISRDNAKNTVYLQMNSLKPEDTAVYYCAARLYNTYSGFAFGYWGQGTQVTVSS : high polyreactivity
QVQLVESGGGLVQAGGSLRLSCAASVLIFYDNIGWYRQAPGKERELVAAIDSGGNTYADSVKGRFTISRDNAKNTVYLQMNSLKPEDTAVYYCAVDGGEFSSYGYWGQGTQVTVSS : low polyreactivity
QVQLVESGGGLVQAGGILRLSCAAYGRTFYLYTMGWYRQEPGKERELVAAISRGGRTYADSVKGRFTISRDNAKNTVYLQMNSLKPEDTAVYYCADRGYFYYSRYDSWGQGTQVTVSS : low polyreactivity
QVQLVESGGGLVQAGGSLRLSCAASGSIFRSNTMGWYRQAPGKERELVASITRGGSTNYADSVKGRFTISRDNAKNTVYLQMNSLKPEDTAVYYCIARRTVRYYFSYGYWGQGTQVTVSS : high polyreactivity

Give the measured polyreactivity (PSR sort gate) of QVQLVESGGGLVQAGGSLRLSCAASGRNSPSYAMGWYRQAPGKERELVAAISKRGGTTYYADSVKGRFTISRDNAKNTVYLQMNSLKPEDTAVYYCSARDYSHPTDDNYWGQRTQVTVSS . high polyreactivity

Give the measured polyreactivity (PSR sort gate) of QVQLVESGGGLVQAGGSLRLSCAASGIIFEYYAMGWYRQAPGKEWELVAAITDDGVVTYYGDSVKGRFTISRDNAKNTVYLQMNSLKPEDTAVYYCAAESYWTATYTYDYWGQGTQVTVSS . high polyreactivity

Give the measured polyreactivity (PSR sort gate) of QVQLVESVGGLVQAGGSLRLSCAASGFIFSVYAMGWNRQAPGKERELVAVISTSGGRTYYADSVKGRFTISRDNAKNTVYLQMNSLKPEDTAVDYCAADGFQYTLGNYYWGQGTQVTLSS . high polyreactivity

====

Protocol description: yeast display, Sf9 membrane polyspecificity reagent, FACS + sequencing; frameworks hold sequencing errors
Measure name: polyreactivity (PSR sort gate)

Worked examples follow.
QVQLVESGGGLVQAGGSLRLSCAASGRIFSLNDMGWYRQAPGKERELVATIRGRGTSTYYADSVKGRFTISRDNAKNTVYLQMNSLKPEDTAVYYCAARGHGAYGYWGQGSQVTVSS : low polyreactivity
QVQLVESGGGLVQAGGSLRLSCAASGSIFIVYAMGWYRQAPGKERELVATITSGGSTNYADSVKGRFTISRDNAKNTVYLQMNSLKPEDTAVYYCATQFPPSTIYDYWGQGTQVTVSS : low polyreactivity
QVNHVESGGGLVQAGGSLRLTCAASGRTFSRYVMGWYRQSPGKERELVAAISRTGGRTYYADSVKGRFTISRDNAKNSVYLQMNSLNPEDTAVYYCYAGTVLISTYDYWGQGTQVTLSS : high polyreactivity
QVQLVESGGGLVQAGGSLRLSCAASGGIFYYYTMGWYRQAPGKERELVAVISSSGSTYYADSVKGRFTISRDNAKNTVYLQMNSLKPEDTAVYYCNALGWYGDYDYWGQGTQVTVSS : low polyreactivity
QVKLVESGGGLVQAGGSLRLSCADSGLIFYKYAMGWYRKAPGKERELVAAITSGGSTNYADSVKGRFTISRDNAKNTVYLQMNSLKPEDTAVYYCNADYNHYLVVRWWYPPVDYWGQGTQVTVSS : low polyreactivity

Give the measured polyreactivity (PSR sort gate) of QVQLVESGGGLVQAGGSLRLSCAASGFTFSFYTMGGYRQAPGTARELVAAISRNGGSTYYADSVKGRFTISRDNAKTTDYFQMNSLKPEDTAVYYCAARARGGDWGSGDYWGQGTQVTVSS . high polyreactivity

Give the measured polyreactivity (PSR sort gate) of QVQLEESGGGLVQAGGSLRLSCAASGRIFYPYAMGWYRQAPGKERELVAAISRSGGSTYYADSVKGRFTISRDNAKNTVYLQMNSLKPEDTAVYYCATGFYRAISHHGYDYWGQGTQVTVSS . low polyreactivity

Give the measured polyreactivity (PSR sort gate) of QDQLVESGGGLVQAGGSLRLICAASGSILSGYAMGWYRQAPGKERELVAAITSGGDTNYADSVKGRFTISRDNAKNTVYLQMNSLKPEDTAVYYCNRRGDFRIAYYDPMDYWGQGTQVTVSS . low polyreactivity

Give the measured polyreactivity (PSR sort gate) of QVQLVESGGGLVQAGGSLRLSCAASGFTFSKYVKGLYRQAPGKERELVAAISKRGGSTYYADSVKGRFTISRDYAKNTVYLQMNSLKPEDTAVYYCAARYYLEQILEKDYWVQGTQVTVSS . high polyreactivity

Give the measured polyreactivity (PSR sort gate) of QDQLVESGGGLVQAGGSLRLSCAAYGRTLRRYAMGWYRQAPGKERELVAAISRSGSSTYADSVKGRFTISRDNAKNTVYLQMNSLKPEDTAVYYCNAYQPRYGYWGQGTQVTVSS . high polyreactivity

Give the measured polyreactivity (PSR sort gate) of QVQLVESGGGLVQAGGSLRLSCAASGSIFGANTMGWYRQAPGKERELVAAISSGGNTYYADSVKGRFTISRDNAKNTVYLQMNSLKPEDTAVYYCNAQTRYRYQYGYLGGTGYNYWGQGTQVTVSS . low polyreactivity

All figures here come from the nanobody polyreactivity screen of Harvey et al. (2022).
